Test system: nitric oxide (NO) production in BV-2 microglial cells
Experiment: LPS-stimulated accumulation of nitrite (NO metabolite) in BV-2 cells, Griess assay
Format: cell-based, mouse
Details: Mus musculus, read-out: NO, concentration required for 50% inhibition; LPS-stimulated BV-2 cells, 16 hrs
Property Name: IC50 (µM)
Numeric only. Scale: µM

In plain terms, Clc1cc(-c2ccccc2)nnc1N1CCN(c2ncccn2)CC1 [MW01-6-127WH] has a documented IC50 of 19

* * *

Test system: LPS-induced IL-1β production in BV-2 microglia cells
Experiment: LPS-induced IL-1β production in BV-2 microglial cells
Settings: Mus musculus, BV-2, 16 h, read-out: IL-1β, concentration required for 50% inhibition
Property Name: pIC50
Worth noting: pIC50 values are minus log10 of concentrations stated in mol/L.

Cc1cc(-c2ccccc2)nnc1N1CCN(c2ncccn2)CC1
5.08
Clc1cc(-c2ccccc2)nnc1N1CCN(c2ncccn2)CC1 [MW01-6-127WH]
5.02
Cc1cc(-c2ccccc2)nnc1N1CCN(C2CCCCC2)CC1
4.50

Next, consider the following compound.
In plain terms, "Cc1cc(-c2ccccc2)nnc1N1CCN(C)CC1" has a documented pIC50 of 4.31

* * *

Test system: nitric oxide (NO) production in BV-2 microglial cells
Experiment: LPS-stimulated accumulation of nitrite (NO metabolite) in BV-2 cells, Griess assay
Format: cell-based, mouse
Settings: Mus musculus, BV-2, 16 h, read-out: NO, concentration required for 50% inhibition
pIC50: −log10 of the molar value.
Property Name: pIC50

In plain terms, c1ccc(-c2cc(-c3ccccc3)c(N3CCN(c4ncccn4)CC3)nn2)cc1 [MW01-5-188WH] has a documented pIC50 of < 4.60
